Measured IC50 of individual entries
- experimental.system: CDK4/CCND3 (Homo sapiens, UniProt P11802)
- Sequence (P11802 whole entry): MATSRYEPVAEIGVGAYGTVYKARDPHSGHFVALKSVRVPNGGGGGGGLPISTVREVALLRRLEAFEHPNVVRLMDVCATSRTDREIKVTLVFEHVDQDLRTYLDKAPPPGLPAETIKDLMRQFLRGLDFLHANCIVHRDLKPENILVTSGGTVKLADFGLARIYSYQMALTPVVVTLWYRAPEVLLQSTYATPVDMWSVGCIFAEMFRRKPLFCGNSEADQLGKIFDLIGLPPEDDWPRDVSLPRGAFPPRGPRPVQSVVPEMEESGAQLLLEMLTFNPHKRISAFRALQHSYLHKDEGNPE
- Sequence (P30281 whole entry partner): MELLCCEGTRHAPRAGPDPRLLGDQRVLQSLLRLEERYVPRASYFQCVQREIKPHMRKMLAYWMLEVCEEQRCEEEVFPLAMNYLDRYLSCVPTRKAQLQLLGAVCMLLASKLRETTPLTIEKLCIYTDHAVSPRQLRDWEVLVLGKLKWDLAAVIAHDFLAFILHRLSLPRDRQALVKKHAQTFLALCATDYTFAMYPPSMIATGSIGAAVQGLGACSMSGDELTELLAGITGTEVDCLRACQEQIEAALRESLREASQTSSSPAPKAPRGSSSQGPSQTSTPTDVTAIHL
- assay.info: CDK4 homogeneous time-resolved fluorescence (HTRF) kinase assay
- Format: biochemical
- measurement.setup: >250 nM; CDK4/CCND; read-out: CDK4/CCND IC50, >250 nM
- Method: A CDK homogeneous time-resolved fluorescence (HTRF) assay was used to assess the potency of the compounds described herein. To an untreated 384-well microtiter plate (ProxiPlate) was added 100 nL 100×test compound in DMSO and 5 μL 2×CDK enzyme in assay buffer (50 mM HEPES, 1 mM EGTA, 10 mM MgCl2, 0.01% Tween 20, 2 mM DTT). […] Fluorescence was read at 340 nm excitation and 665 nm emission on an EnVision 2105 fluorescence reader. […] Using this assay, the IC50 values of example compounds were determined. […]

For orientation, consider the following solved cases.
smiles.code	IC50
Cc1cc(C#Cc2nccc3cnc(Nc4ccc(S(C)(=O)=O)cc4)cc23)sn1	> 250 nM
CS(=O)(=O)c1ccc(Nc2cc3c(C#Cc4ccc(C#N)s4)nccc3cn2)cc1	> 250 nM
COc1ccnc(NS(=O)(=O)c2ccc(Nc3cc4c(-c5ccc6c(cnn6CC(C)(C)O)c5C)nccc4cn3)cc2)n1	> 250 nM

Requested field: IC50. Item: Cc1c(-c2nccc3cnc(Nc4ccc(NS(=O)(=O)c5ccc(Cl)cn5)cc4)cc23)ccc2c1cnn2CC(C)(C)O
> 250 nM

Next: Cc1c(-c2nccc3cnc(Nc4ccc(NS(=O)(=O)c5cc6ccccc6o5)cc4)cc23)ccc2c1cnn2CC(C)(C)O
> 250 nM

Next: Cc1c(-c2nccc3cnc(Nc4ccc(S(=O)(=O)Nc5ncc(C(F)(F)F)cn5)cc4)cc23)ccc2c1cnn2CC(C)(C)O
> 250 nM

Next: Cc1c(-c2nccc3cnc(Nc4ccc(S(=O)(=O)Nc5ccccc5)cc4)cc23)ccc2c1cnn2CC(O)(C(F)(F)F)C(F)(F)F
> 250 nM

* * *

Measured IC50 of individual entries
- experimental.system: CDK1/CCNB1 (Homo sapiens, UniProt P06493)
- Sequence (P06493 whole entry): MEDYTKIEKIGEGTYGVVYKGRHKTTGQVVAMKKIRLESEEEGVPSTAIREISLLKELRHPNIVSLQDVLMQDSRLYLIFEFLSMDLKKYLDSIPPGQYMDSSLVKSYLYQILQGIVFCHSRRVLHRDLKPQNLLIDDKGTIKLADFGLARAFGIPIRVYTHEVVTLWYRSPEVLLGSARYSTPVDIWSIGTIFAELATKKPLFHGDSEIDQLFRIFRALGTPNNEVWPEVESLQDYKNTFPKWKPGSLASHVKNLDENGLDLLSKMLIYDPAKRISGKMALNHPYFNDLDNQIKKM
- Sequence (P14635 whole entry partner): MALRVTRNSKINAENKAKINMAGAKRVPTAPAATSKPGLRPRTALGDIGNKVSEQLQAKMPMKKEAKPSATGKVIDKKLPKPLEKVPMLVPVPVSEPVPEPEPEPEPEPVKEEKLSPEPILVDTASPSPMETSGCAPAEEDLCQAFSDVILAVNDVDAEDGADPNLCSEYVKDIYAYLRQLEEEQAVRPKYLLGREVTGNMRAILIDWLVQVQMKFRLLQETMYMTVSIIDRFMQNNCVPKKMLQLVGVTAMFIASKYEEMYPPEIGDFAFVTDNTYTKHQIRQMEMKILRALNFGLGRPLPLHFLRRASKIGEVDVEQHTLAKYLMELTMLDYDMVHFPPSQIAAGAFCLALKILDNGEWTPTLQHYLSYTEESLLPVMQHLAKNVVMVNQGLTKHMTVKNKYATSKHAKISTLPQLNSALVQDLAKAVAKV
- assay.info: CDK1 homogeneous time-resolved fluorescence (HTRF) kinase assay
- Format: biochemical
- measurement.setup: CDK1/CCNB; x = IC50 >250 nM; read-out: CDK1/CCNB IC50 (>250 nM column)

For orientation, consider the following solved cases.
molecule	IC50
CS(=O)(=O)c1ccc(Nc2cc3c(C#Cc4ccc(C(F)(F)F)cc4N)nccc3cn2)cc1 [Ex 563]	> 250 nM
CC(C)S(=O)(=O)c1ccc(Nc2cc3c(C#Cc4cccnc4N)nccc3cn2)cc1 [Ex 400]	> 250 nM
COC(=O)CCc1ccc(C#Cc2nccc3cnc(Nc4ccc(S(C)(=O)=O)cc4)cc23)cc1 [Example 493]	> 250 nM
CS(=O)(=O)c1ccc(Nc2cc3c(C#Cc4cnc5ccc(Cl)nn45)nccc3cn2)cc1 [Ex 578]	> 250 nM
CS(=O)(=O)c1ccc(Nc2cc3c(C#Cc4cn[nH]c4)nccc3cn2)cc1 [Ex 664]	> 250 nM
CS(=O)(=O)c1ccc(Nc2cc3c(C#Cc4ccc(C#N)c(F)c4)nccc3cn2)cc1 [Ex 650]	> 250 nM
COC(=O)c1n[nH]c2cc(-c3nccc4cnc(Nc5ccc(S(C)(=O)=O)cc5)cc34)ccc12 [Ex 605]	> 250 nM

Then this molecule:
Requested field: IC50. Item: CCC1(CC)C(=O)Nc2cc(C#Cc3nccc4cnc(Nc5ccc(S(=O)(=O)C6CC6)cc5)cc34)ccc21 [Ex 408]
> 250 nM

* * *

- experimental.system: CDK2/CCNE1 (Homo sapiens, UniProt P24941)
- assay.info: CDK2 homogeneous time-resolved fluorescence (HTRF) kinase assay
- Format: biochemical
- measurement.setup: CDK2/CCNE; <25 nM; read-out: CDK2/CCNE IC50 <25 nM
pIC50: −log10 of the molar value.
Measured pIC50 of individual entries

For orientation, consider the following solved cases.
compound	obs.value
COC(=O)[C@H]1CC[C@H](C#Cc2nccc3cnc(Nc4ccc(S(C)(=O)=O)cc4)cc23)CC1 [Ex 213]	> 7.60
CS(=O)(=O)c1ccc(Nc2cc3c(C#CCCO)nccc3cn2)cc1 [Ex 130]	> 7.60
CS(=O)(=O)N1CCC(Nc2cc3c(N4CCC(C#N)C4)nccc3cn2)CC1 (single isomer, unassigned) [Ex 115]	> 7.60

Then this compound:
Please state recorded pIC50 (tested on CDK2/CCNE1 (Homo sapiens, UniProt P24941)) of CS(=O)(=O)N1CCC(Nc2cc3c(N4CCC(CO)CC4)nccc3cn2)CC1 [Ex 41]
> 7.60

* * *

- experimental.system: CDK1/CCNB1 (Homo sapiens, UniProt P06493)
- assay.info: CDK1 homogeneous time-resolved fluorescence (HTRF) kinase assay
- Assay type: biochemical
result.type: IC50

smiles.code	result.type	obs.value
N#CC1CCN(c2nccc3cnc(Nc4cccc(OS(=O)(=O)F)c4)cc23)CC1	IC50	> 0.25 µM

Then this compound:
Please state recorded IC50 (tested on CDK1/CCNB1 (Homo sapiens, UniProt P06493)) of N#CC1CCN(c2nccc3cnc(Nc4ccc(OS(=O)(=O)F)cc4)cc23)CC1
> 0.25 µM

* * *

- experimental.system: CDK4/CCND3 (Homo sapiens)
- assay.info: CDK4 homogeneous time-resolved fluorescence (HTRF) kinase assay
- Assay type: biochemical
- measurement.setup: >250 nM; CDK4/CCND; read-out: CDK4/CCND IC50, >250 nM
- Description: A CDK homogeneous time-resolved fluorescence (HTRF) assay was used to assess the potency of the compounds described herein. To an untreated 384-well microtiter plate (ProxiPlate) was added 100 nL 100×test compound in DMSO and 5 μL 2×CDK enzyme in assay buffer (50 mM HEPES, 1 mM EGTA, 10 mM MgCl2, 0.01% Tween 20, 2 mM DTT). […] Fluorescence was read at 340 nm excitation and 665 nm emission on an EnVision 2105 fluorescence reader. […] Using this assay, the IC50 values of example compounds were determined. […]
Measured IC50 of individual entries

Requested field: IC50. Item: COc1nccc(C#Cc2nccc3cnc(Nc4ccc(S(C)(=O)=O)cc4)cc23)c1C [Ex 909]
> 250 nM

Next: Cc1c(-c2nccc3cnc(Nc4ccc(S(=O)(=O)Nc5nccc(N6CCN(C)CC6)n5)cc4)cc23)ccc2c1cnn2CC(C)(C)O [Ex 892]
> 250 nM

Next: Cc1c(-c2nccc3cnc(Nc4ccc(S(=O)(=O)Nc5cccc(C(F)(F)F)n5)cc4)cc23)ccc2c1cnn2CC(O)(C(F)(F)F)C(F)(F)F [Ex 720]
> 250 nM

Next: Cc1c(-c2nccc3cnc(Nc4ccc(NS(=O)(=O)c5ccccc5)cc4)cc23)ccc2c1cnn2CC(C)(C)O [Ex 787]
> 250 nM

Next: COc1cccc(NS(=O)(=O)c2ccc(Nc3cc4c(-c5ccc6c(cnn6CC(C)(C)O)c5C)nccc4cn3)cc2)n1 [Ex 812]
> 250 nM

Next: CCOc1ccc(C#Cc2nccc3cnc(Nc4ccc(S(C)(=O)=O)cc4)cc23)cn1 [Ex 869]
> 250 nM

Next: CC[C@@H](C)NS(=O)(=O)c1ccc(Nc2cc3c(-c4ccc5c(cnn5CC(C)(C)O)c4C)nccc3cn2)cc1 [Example 721]
> 250 nM

Next: N#Cc1ccc(C#Cc2nccc3cnc(Nc4cnc(O)c(N5CCNCC5)c4)cc23)cc1 [Ex 917]
> 250 nM

Next: Cc1c(-c2nccc3cnc(Nc4ccc(NS(=O)(=O)c5cnn(-c6ccccn6)c5)cc4)cc23)ccc2c1cnn2CC(C)(C)O [Ex 824]
> 250 nM

* * *

- experimental.system: CDK4/CCND3 (Homo sapiens, UniProt P11802)
- assay.info: CDK4 homogeneous time-resolved fluorescence (HTRF) kinase assay
- Type: biochemical
- measurement.setup: CDK4/CCND IC50 25-250 nM, CDK4/CCND; 25-250 nM marked x
- Procedure: A CDK homogeneous time-resolved fluorescence (HTRF) assay was used to assess the potency of the compounds described herein. To an untreated 384-well microtiter plate (ProxiPlate) was added 100 nL 100×test compound in DMSO and 5 μL 2×CDK enzyme in assay buffer (50 mM HEPES, 1 mM EGTA, 10 mM MgCl2, 0.01% Tween 20, 2 mM DTT). […] Fluorescence was read at 340 nm excitation and 665 nm emission on an EnVision 2105 fluorescence reader. […] Using this assay, the IC50 values of example compounds were determined. […]
result.type: IC50

Requested field: IC50. Item: CS(=O)(=O)c1ccc(Nc2cc3c(C4=CCNCC4)nccc3cn2)cc1 [Ex 146]
25 to 250 nM

* * *

- experimental.system: CDK2/CCNE1 (Homo sapiens, UniProt P24941)
- assay.info: CDK2 homogeneous time-resolved fluorescence (HTRF) kinase assay
- Format: biochemical
- measurement.setup: 25-250 nM; CDK2/CCNE; read-out: CDK2/CCNE IC50, 25-250 nM
result.type: IC50

For orientation, consider the following solved cases.
smiles.code	result.type	obs.value
Cc1c(-c2nccc3cnc(Nc4ccc(S(=O)(=O)Nc5ncc(C(F)(F)F)cn5)cc4)cc23)ccc2c1cnn2CC(C)(C)O	IC50	0.025 to 0.25 µM
Cc1nc[nH]c1C#Cc1nccc2cnc(Nc3ccc(S(C)(=O)=O)cc3)cc12	IC50	0.025 to 0.25 µM

Please state recorded IC50 (tested on CDK2/CCNE1 (Homo sapiens, UniProt P24941)) of Cc1c(-c2nccc3cnc(Nc4ccc(S(=O)(=O)Nc5ncc(Cl)cn5)cc4)cc23)ccc2c1cnn2CC(C)(C)O
0.025 to 0.25 µM

Data provenance is patent US20260325533A1.
